B1: MYOZ1 (parent)
chain: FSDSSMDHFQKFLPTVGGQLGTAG

# Variants of: B1
# ASSAY_DETAILS: protein stability index of a GFP-peptide fusion (GPS, HEK-293T) (PSI 1-6); higher = more stable;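 further: lentivirally expressed fusions sorted by FACS into six bins by GFP to DsRed ratio, PSI derived from sequencing read proportions per bin multiplied by bin number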
# CONDITION_SET: c terminus: a fixed tail appended
Label 1 when protein stability index >= 2; otherwise -1.

>>> qualitative_label("P14N")
-1
>>> qualitative_label("S4F")
1
>>> qualitative_label("H8A")
-1
>>> qualitative_label("T22F")
-1
>>> qualitative_label("F12Y")
1
>>> qualitative_label("G18A")
-1
>>> qualitative_label("L13G")
1
>>> qualitative_label("H8R")
-1
